- test.details: Plasma and brain levels in healthy mouse
- Format: in vivo
- details: plasma, 2 hours, oral dose, read-out: Plasma concentration
readout: concentration at 2 h (ng/mL)

compound="COC12CC(C(=O)NC(=O)Nc3ccc(C)c(Oc4ccccn4)c3)(C1)C2 [Compound 98]" numeric_value=399

---

Listed here: items and their measured solubility kinetic.
- test.details: Kinetic solubility in aqueous PBS buffer (HPLC-MS)
- Assay type: physicochemical
- details: kinetic from dmso stock, 'In some embodiments', values worded 'about', read-out: kinetic solubility (range stated in description)
readout: solubility kinetic

compound="COC12CC(C(=O)NC(=O)Nc3ccc(Oc4nccs4)c(C)c3)(C1)C2 [drawing 270]" result="1.5 to 3.5 µM"
compound="COC1CC(C(=O)NC(=O)Nc2ccc(C)c(Oc3nccs3)c2)C1 (stereo not drawn) [drawing 279]" result="7 to 11 µM"
compound="COC12CC(C(=O)NC(=O)Nc3ccc(C)c(Oc4ncccn4)c3)(C1)C2 [drawing 283]" result="4 to 8 µM"
compound="COC1CC(C(=O)NC(=O)Nc2ccc(C)c(Oc3ccccn3)c2)C1 (stereo not drawn) [drawing 280]" result="10 to 14 µM"
compound="COC1CC(C(=O)NC(=O)Nc2ccc(C)c(Oc3ncccn3)c2)C1 (stereo not drawn) [drawing 282]" result="13 to 17 µM"
compound="COC12CC(C(=O)NC(=O)Nc3ccc(Oc4ncc(Cl)cn4)c(C)c3)(C1)C2 [drawing 272]" result="1.5 to 3.5 µM"

---

- test.details: Plasma and brain tissue levels after oral dose, brain tumor xenograft mice
- Format: in vivo, CrTac:NCr-Foxn1nu athymic nude mouse
- details: CrTac:NCr-Foxn1nu athymic nude, plasma; 1 hour; single oral dose 100 mg/kg; tumor-bearing nude mouse; read-out: Plasma concentration
readout: concentration at 1 h (ng/mL)

compound="COC1CC(C(=O)NC(=O)Nc2ccc(Oc3ccc(Cl)cn3)c(C)c2)C1 (single isomer, unassigned) [Compound 19A]" readout="concentration at 1 h" measurement_units=ng/mL numeric_value=1340

---

- test.details: Plasma and brain tissue levels after oral dose, brain tumor xenograft mice
- Type: in vivo, CrTac:NCr-Foxn1nu athymic nude mouse
- details: CrTac:NCr-Foxn1nu athymic nude, mouse, brain tissue (left, healthy); 0.5 hours; single oral dose 100 mg/kg; read-out: Brain Tissue Healthy, Left concentration
readout: concentration at 0.5 h (ng/g)

compound="COC1CC(C(=O)NC(=O)Nc2ccc(Oc3ccc(Cl)cn3)c(C)c2)C1 (single isomer, unassigned) [Compound 19A]" readout="concentration at 0.5 h" numeric_value=767

---

- test.details: Plasma and brain tissue levels after oral dose, brain tumor xenograft mice
- Format: in vivo, CrTac:NCr-Foxn1nu athymic nude mouse
- details: CrTac:NCr-Foxn1nu athymic nude, mouse, brain tissue (right, containing tumor); 0.5 hours; single oral dose 100 mg/kg; read-out: Brain Tissue Tumor, right concentration
readout: concentration at 0.5 h

compound="COC1CC(C(=O)NC(=O)Nc2ccc(Oc3ccc(Cl)cn3)c(C)c2)C1 (single isomer, unassigned) [Compound 19A]" result="828 ng/g"

---

- test.details: Kinetic solubility in aqueous PBS buffer (HPLC-MS)
- Assay type: physicochemical
- details: kinetic from dmso stock, 'In some embodiments', values worded 'about', read-out: kinetic solubility (range stated in description)
readout: solubility kinetic

compound="COC12CC(C(=O)NC(=O)Nc3ccc(Oc4ncc(F)cn4)c(C)c3)(C1)C2 [drawing 275]" readout="solubility kinetic" result="85 to 91 µM"
compound="COC1CC(C(=O)NC(=O)Nc2ccc(C)c(Oc3ccc(F)cn3)c2)C1 (stereo not shown) [drawing 281]" readout="solubility kinetic" result="5 to 9 µM"
compound="COC12CC(C(=O)NC(=O)Nc3ccc(Oc4ncccn4)c(C)c3)(C1)C2 [drawing 274]" readout="solubility kinetic" result="25 to 30 µM"
compound="COC12CC(C(=O)NC(=O)Nc3cc(C)c(Oc4ncc(Cl)cn4)c(F)c3)(C1)C2 [drawing 277]" readout="solubility kinetic" result="1.5 to 3.5 µM"

All figures here come from patent US12404242B2.
